STUDY_SYSTEM: T1, human BAFF receptor (BAFFR) (human, UniProt Q96RJ3 1-184)
T1 construct: On Raji cells (endogenous), on transfected HEK293-hBAFFR cells, and on primary human blood B cells in the functional assays; also called hBAFFR; BR3
T1 sequence: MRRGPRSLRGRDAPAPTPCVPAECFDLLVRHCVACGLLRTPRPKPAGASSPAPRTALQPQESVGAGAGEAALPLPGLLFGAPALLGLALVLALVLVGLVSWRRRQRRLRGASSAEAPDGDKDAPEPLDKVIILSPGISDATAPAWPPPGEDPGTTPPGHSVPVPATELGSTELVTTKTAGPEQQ
TEST_NAME: FACS titration of Fab on transfected HEK293-hBAFFR cells
Below, each entry is listed with its recorded EC50.
Kindly provide the numeric value in nM only, without the unit symbol.

{"BINDER": "MOR07349 Fab (Fab, V domains shown, Human Fab format) VH: QVQLQQSGPGLVKPSQTLSLTCAISGDSVSSNSAAWGWIRQSPGRGLEWLGRIYYRSKWWNDYAVSVKSRITINPDTSKNQFSLQLNSVTPEDTAVYYCARYDWVPKIGVFDGWGQGTLVTVSS VL: DIVLTQSPATLSLSPGERATLSCRASQMIDLRYLSWYQQKPGQAPRLLIYGSSSRATGVPARFSGSGSGTDFTLTISSLEPEDFAVYYCQQFYSSPLTFGQGTKVEIK", "EC50, nM": 0.24}
{"BINDER": "MOR07347 Fab (Fab, V domains shown, Human Fab format) VH: QVQLQQSGPGLVKPSQTLSLTCAISGDSVSSNSAAWGWIRQSPGRGLEWLGRIYYRSKWYNSYAVSVKSRITINPDTSKNQFSLQLNSVTPEDTAVYYCARYQWVPKIGVFDSWGQGTLVTVSS VL: DIVLTQSPATLSLSPGERATLSCRASQEILPEYLSWYQQKPGQAPRLLIYGSSSRATGVPARFSGSGSGTDFTLTISSLEPEDFAVYYCQQFYSSPLTFGQGTKVEIK", "EC50, nM": 0.08}

I would be grateful if you could share the reported EC50 for MOR07348 Fab (Fab, V domains shown, Human Fab format; also called MOR7348; MOR007348) VH: QVQLQQSGPGLVKPSQTLSLTCAISGDSVSSNSAAWGWIRQSPGRGLEWLGRIYYRSKWYNSYAVSVKSRITINPDTSKNQFSLQLNSVTPEDTAVYYCARYDWVPKIGVFDLWGQGTLVTVSS VL: DIVLTQSPATLSLSPGERATLSCRASQWIEAGYLSWYQQKPGQAPRLLIYGSSSRATGVPARFSGSGSGTDFTLTISSLEPEDFAVYYCQQLYSSPMTFGQGTKVEIK .
0.24
